Data origin: ChEMBL document CHEMBL1629549

assay overview: AUC (0 to 24 hrs) in HIV-infected patient at 100 mg, qd co-administered with 100 mg minocycline, bid for 15 days
Format: ADME, organism-based
Design: time < 24 hr, dose 100 mg
setup conditions: human, plasma
property name: AUC at 24 h

{"item smiles": "CC(C)c1nc(CN(C)C(=O)N[C@H](C(=O)N[C@@H](Cc2ccccc2)C[C@H](O)[C@H](Cc2ccccc2)NC(=O)OCc2cncs2)C(C)C)cs1", "property name": "AUC at 24 h", "result": "8190 ng·h/mL"}

====

assay overview: Cmax in HIV-infected patient at 300 mg, qd
Type: ADME, organism-based
Design: dose 300 mg
setup conditions: human, in vivo

{"compound": "COC(=O)N[C@H](C(=O)N[C@@H](Cc1ccccc1)[C@@H](O)CN(Cc1ccc(-c2ccccn2)cc1)NC(=O)[C@@H](NC(=O)OC)C(C)(C)C)C(C)(C)C [ATAZANAVIR]", "Cmax / ng/mL": 5130}

====

assay overview: Cmax in HIV-infected patient at 100 mg, qd co-administered with 100 mg minocycline, bid for 15 days
Type: ADME, organism-based
Set-up: dose 100 mg
setup conditions: human, in vivo
property name: Cmax (ng/mL)

{"item smiles": "CC(C)c1nc(CN(C)C(=O)N[C@H](C(=O)N[C@@H](Cc2ccccc2)C[C@H](O)[C@H](Cc2ccccc2)NC(=O)OCc2cncs2)C(C)C)cs1", "property name": "Cmax", "unit symbol": "ng/mL", "numeric readout": 990}

====

assay overview: Half life in HIV-infected patient at 300 mg, qd
Type: ADME, organism-based
setup conditions: human, in vivo

{"item smiles": "COC(=O)N[C@H](C(=O)N[C@@H](Cc1ccccc1)[C@@H](O)CN(Cc1ccc(-c2ccccn2)cc1)NC(=O)[C@@H](NC(=O)OC)C(C)(C)C)C(C)(C)C", "half-life": "11 h"}

====

assay overview: AUC (0 to 24 hrs) in HIV-infected patient at 100 mg, qd
Format: ADME, organism-based
Parameters: dose 100 mg, time < 24 hr
setup conditions: human, plasma

{"item smiles": "CC(C)c1nc(CN(C)C(=O)N[C@H](C(=O)N[C@@H](Cc2ccccc2)C[C@H](O)[C@H](Cc2ccccc2)NC(=O)OCc2cncs2)C(C)C)cs1", "AUC at 24 h / ng·h/mL": 9600}

====

assay overview: AUC (0 to 24 hrs) in HIV-infected patient at 100 mg, qd co-administered with 100 mg minocycline and 250 mg valporic acid, bid for 15 days
Format: ADME, organism-based
Set-up: dose 100 mg, time < 24 hr
setup conditions: human, plasma

{"item smiles": "CC(C)c1nc(CN(C)C(=O)N[C@H](C(=O)N[C@@H](Cc2ccccc2)C[C@H](O)[C@H](Cc2ccccc2)NC(=O)OCc2cncs2)C(C)C)cs1", "unit symbol": "ng·h/mL", "AUC at 24 h": 7270}

====

assay overview: Half life in HIV-infected patient at 100 mg, qd
Assay type: ADME, organism-based
setup conditions: human, in vivo
property name: half-life (h)

{"item smiles": "CC(C)c1nc(CN(C)C(=O)N[C@H](C(=O)N[C@@H](Cc2ccccc2)C[C@H](O)[C@H](Cc2ccccc2)NC(=O)OCc2cncs2)C(C)C)cs1", "property name": "half-life", "numeric readout": 5.4}
